- target.system: T1, CRBN, Q96SW2;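 note: pooled lentiviral library of zinc finger degron-EGFP fusions in mCherry-positive Jurkat cells, FACS-sorted after compound exposure, with degron abundance counted by next-generation sequencing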
- T1 chain: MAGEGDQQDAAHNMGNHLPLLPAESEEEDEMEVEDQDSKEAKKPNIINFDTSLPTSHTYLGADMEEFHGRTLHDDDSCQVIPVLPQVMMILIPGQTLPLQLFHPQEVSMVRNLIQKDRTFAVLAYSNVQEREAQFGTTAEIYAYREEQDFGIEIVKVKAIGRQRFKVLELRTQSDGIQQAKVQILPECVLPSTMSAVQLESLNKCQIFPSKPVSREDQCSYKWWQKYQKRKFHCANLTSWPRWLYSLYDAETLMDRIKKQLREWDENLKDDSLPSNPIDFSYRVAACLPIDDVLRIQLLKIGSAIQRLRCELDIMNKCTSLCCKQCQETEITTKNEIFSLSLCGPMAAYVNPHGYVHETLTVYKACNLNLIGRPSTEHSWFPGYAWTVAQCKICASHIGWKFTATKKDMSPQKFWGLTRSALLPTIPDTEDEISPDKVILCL
- assay.procedure: log2 fold change of degron read counts, EGFP-low vs EGFP+ sorted cells (limma voom), compound-induced degradation; higher = more compound-induced degradation of the degron-EGFP fusion; degrons are variants of IKZF1/3 zinc finger 2; compound dose not given here
- assay.context: Jurkat; 18 h; compound: compound 22 (5-morpholino-thalidomide)
The full ranking holds about 8,300 sequences; the median of “log2 fold change of degron read counts, EGFP-low vs EGFP+ sorted cells (limma voom), compound-induced degradation” is about -1.1, and the highest 2% start at about 3.2. Shown is part of a subset that was picked to be rich in the highest values.

| query.sequence | log2 fold change of degron read counts |
| --- | --- |
| FSCNQCGHTFTQKGNLLRHIKL [46F_47S_49N_50Q_52G_53H_54T_55F_67L_, Q9UKT9] | -2.51 |
| FTCEQCGAKFTQKGNLLRHIKL [46F_47T_49E_50Q_52G_53A_54K_55F_67L_, Q9UKT9] | -1.04 |
| FQCPVCGAMFTQKGNLLRHIKL [46F_47Q_49P_50V_52G_53A_54M_55F_67L_, Q9UKT9] | 2.26 |
| FGCPICGAVFTQKGNLLRHIKL [46F_47G_49P_50I_52G_53A_54V_55F_67L_, Q9UKT9] | 2.54 |
| FWCPVCGALFTQKGNLLRHIKL [46F_47W_49P_50V_52G_53A_54L_55F_67L_, Q9UKT9] | 2.3 |
